# System: TTR
# protocol: TTR editing in HepG2 cells transfected with Spy Cas9 mRNA and dgRNAs (Table 6)
# Type: cell-based, human
# conditionDetails: HepG2 cells co-transfected with Spy Cas9 mRNA (SEQ ID NO:2) and dgRNAs
Parameter: Avg % Deletion. Scope: all listed entries.
Give the value in % but do not write % after it.

• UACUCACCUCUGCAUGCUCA (tested as dual guide RNA, chemistry not given here) [CR003372] = 2.42

# input Give Avg % Deletion (TTR) of the following sequence: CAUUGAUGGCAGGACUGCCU (tested as dual guide RNA, chemistry not given here) [CR003347]
# output 1.49

# input And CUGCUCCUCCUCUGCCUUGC (tested as dual guide RNA, chemistry not given here) [CR003335] ?
# output 4.23

# input And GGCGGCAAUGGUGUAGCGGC (tested as dual guide RNA, chemistry not given here) [CR003378] ?
# output 1.34

# input And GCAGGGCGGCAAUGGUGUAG (tested as dual guide RNA, chemistry not given here) [CR003380] ?
# output 2.30

# input And ACCUGGGAGCCAUUUGCCUC (tested as dual guide RNA, chemistry not given here) [CR003354] ?
# output 0.53

# input And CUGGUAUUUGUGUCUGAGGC (tested as dual guide RNA, chemistry not given here) [CR003341] ?
# output 5.66

# input And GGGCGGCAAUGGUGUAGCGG (tested as dual guide RNA, chemistry not given here) [CR003379] ?
# output 2.04

# input And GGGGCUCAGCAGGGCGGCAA (tested as dual guide RNA, chemistry not given here) [CR003381] ?
# output 0.63

# input And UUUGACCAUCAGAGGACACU (tested as dual guide RNA, chemistry not given here) [CR003344] ?
# output 3.62

# input And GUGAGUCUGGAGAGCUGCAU (tested as dual guide RNA, chemistry not given here) [CR003360] ?
# output 2.38
